Test: protein stability index of a GFP-peptide fusion (GPS, HEK-293T) (PSI 1-6); higher = more stable;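 note: 24-mer peptide tiles fused after GFP, lentivirally expressed, FACS-sorted into six equal bins by GFP/DsRed ratio, decoded by Illumina sequencing, PSI is the read-weighted mean bin number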
Conditions: treatment: DMSO; c terminus: a fixed tail appended
Catalogue of protein stability index readings, one per entry.

# count of solved cases: 4
[[record]]
residues = "ICAIEYLHSKEIVYRDLKPENILL [PRKX]"
endpoint_name = "protein stability index"
result = 2.61

[[record]]
residues = "GGIPALVKMLGSPVDSVLFYAITT [CTNNB1]"
endpoint_name = "protein stability index"
result = 3.19

[[record]]
residues = "GQVLHFENVKDVPFGFQTVTSDVN [SERPINB5]"
endpoint_name = "protein stability index"
result = 3.85

[[record]]
residues = "WQRGLNTPEDSDPDHFDTAILFTR [ADAMTS4]"
endpoint_name = "protein stability index"
result = 3.54


[ask] Retrieve protein stability index measured for VVPARLKRASAPTFDNDYSLSELL [RIPK4] and print it.
[reply] 2.69

[ask] Entry TIYCSLQLQALNRRFQQTQYLALP [DLX1] needs its protein stability index filled in; supply it.
[reply] 2.53

[ask] Given PTHQAHTVGFLDEAIQPYRDRLRS [TRIM15] , respond with its protein stability index.
[reply] 4.52
